Hey, just so you know, these numbers are from PubChem BioAssay.

# Run description: small-molecule microarray binders of probe aEGFR, primary screen, biochemical, biotinylated probe, 635/667 nm fluorescence (AID 1097);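 note: probe is a biotinylated anti-EGFR antibody binding compounds printed on slides; score combines fluorescence near 667 nm and signal to noise of each spot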
# Conditions: higher = more signal
Measure name: composite z-score
API doc: respond with a numeric literal and nothing else, no unit.

Recorded composite z-score, per entry:
Chemical string: O=C(NC1CC1)[C@@H]1c2ccccc2C(=O)N(Cc2ccccc2C(F)(F)F)[C@H]1c1ccc(CO)cc1
composite z-score: -0.039
//
Chemical string: CC(C)(C)OC(=O)CC[C@]1(C(=O)NCc2ccccc2)COC(c2ccc(OCCCO)cc2)=N1
composite z-score: -0.058
//
Chemical string: NCCCCCNC(=O)[C@H]1C[C@H]2C(=O)NCC(=O)N2[C@H]1c1ccc(O)cc1
composite z-score: 0.186
//
Chemical string: COc1ccc([Si](C)(C)[C@H]2[C@H](CC(=O)N(CCO)Cc3ccccc3)O[C@@]3(C(=O)N(Cc4ccc(N5CCOC5=O)cc4)c4ccccc43)[C@@H]2C)cc1
composite z-score: -0.146
//
Chemical string: O=C1c2ccccc2[C@](Cc2ccccc2I)(C(=O)O)[C@H](c2ccc(CO)cc2)N1Cc1ccccc1Cl
composite z-score: -0.104

Next molecule, please.
Query block: Name the reported composite z-score value associated with the molecule COc1ccc([Si](C)(C)[C@H]2[C@H](CC(=O)N(CCO)Cc3ccccc3)O[C@@]3(C(=O)N(Cc4ccc(N5CCC5=O)cc4)c4ccccc43)[C@@H]2C)cc1
Result block: -0.302

====

# Measured on: NADPH oxidase 4 (Homo sapiens) (UniProt Q9NPH5)
# Sequence (Q9NPH5 whole entry, looked up): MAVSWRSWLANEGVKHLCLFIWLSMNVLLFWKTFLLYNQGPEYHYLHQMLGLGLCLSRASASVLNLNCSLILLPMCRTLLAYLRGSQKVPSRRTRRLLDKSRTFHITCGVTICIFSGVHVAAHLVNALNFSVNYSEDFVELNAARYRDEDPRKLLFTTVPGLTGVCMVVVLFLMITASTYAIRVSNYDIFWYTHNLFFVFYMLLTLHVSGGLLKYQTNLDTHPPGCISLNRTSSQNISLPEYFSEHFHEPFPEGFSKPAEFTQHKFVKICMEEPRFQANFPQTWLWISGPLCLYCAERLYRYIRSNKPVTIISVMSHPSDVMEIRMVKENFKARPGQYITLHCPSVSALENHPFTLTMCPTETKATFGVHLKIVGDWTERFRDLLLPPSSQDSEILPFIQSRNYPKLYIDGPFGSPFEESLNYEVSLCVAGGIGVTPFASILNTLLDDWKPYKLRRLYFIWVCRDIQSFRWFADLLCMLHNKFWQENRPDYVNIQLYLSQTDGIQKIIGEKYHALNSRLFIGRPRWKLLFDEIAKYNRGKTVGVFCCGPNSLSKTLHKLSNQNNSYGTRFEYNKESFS
# Run description: NOX4-dependent H2O2 signal modulators, primary screen, NOX inhibitor project, cell-based, HEK293-NOX4, tetracycline-induced, Amplex Red fluorescence (AID 1160)
# Conditions: 45 min, higher = more signal, called active from +8 up or from −8 down
Label satisfied when z-score >= 0.6; otherwise not satisfied.

Query block: Hi team, for COCCCN1C(=O)[C@@]2(Cc3ccccc31)c1ccccc1C(=O)N(Cc1ccccc1Cl)[C@H]2c1ccc(CO)cc1 , is the recorded z-score at or above 0.6?
Result block: not satisfied

Query block: Consider next the molecule CC(C)(C)OC(=O)CC[C@]1(C(=O)NCc2ccccc2)N=C(c2ccc(OCCCO)cc2)O[C@H]1c1ccccc1N=[N+]=[N-] in the same way.
Result block: not satisfied

Query block: Consider next the molecule C#CCN1C(C(=O)OCC)OC[C@H]1c1ccccc1 (stereo not given in full) in the same way.
Result block: satisfied

Query block: Consider next the molecule C=C(C1=CCN(S(=O)(=O)c2ccc(C)cc2)C1)[C@@H](OC(C)=O)[C@@H]1CCCN1S(=O)(=O)c1ccccc1[N+](=O)[O-] in the same way.
Result block: not satisfied

Query block: Consider next the molecule O=C(NO)[C@]1(Cc2ccccc2)N=C(c2ccc(OCCCO)cc2)O[C@@H]1c1ccccc1 in the same way.
Result block: not satisfied

Query block: Consider next the molecule C=CCC(OC(C)=O)[C@@H]1[C@@H](N(Cc2ccc(-c3cccc(C(F)(F)F)c3)o2)C(=O)c2ccc(-c3ccccc3)cc2)c2cc(OCCCO)ccc2N1C(=O)Cc1ccc(OC)cc1 (stereo not given in full) in the same way.
Result block: satisfied

Query block: Consider next the molecule [N-]=[N+]=Nc1ccccc1[C@H]1OC(c2ccc(OCCCO)cc2)=N[C@@]1(Cc1ccccc1)C(N)=O in the same way.
Result block: not satisfied

Query block: Consider next the molecule CCOC(=O)C[C@H]1[C@H](OC(=O)c2ccc(C(=O)c3ccccc3)cc2)[C@@H](NC(=O)Cc2ccc(OC)cc2)c2cc(OCCCO)ccc2N1C(=O)Cc1ccc(OC)cc1 in the same way.
Result block: satisfied

Query block: Consider next the molecule C=CCNC(=O)[C@@H]1[C@H]2C(=O)O[C@H](c3ccccc3)[C@H](c3ccccc3)N2[C@H](c2ccc(O)cc2)[C@@]12C(=O)N(C(=O)OCCOC)c1ccc(C#Cc3ccc(OC)cc3)cc12 in the same way.
Result block: not satisfied

====

Each entry below lists one item and its recorded z-score value.
# Run description: inhibitors of hydroxyurea-induced Chk1 phosphorylation, primary screen, imaging, HeLa, phospho-Chk1 nuclear intensity (AID 1187); note: test concentration not given here
# Conditions: hydroxyurea-induced phospho-Chk1 immunofluorescence imaging, higher = more signal
Active and inactive are the calls of the source. The rule behind the calls is not given here.

Molecule: COc1c(C)cc(-c2cc3c(c(CCc4ccccc4)n2)[Si](C(C)C)(C(C)C)OC3)cc1C
z-score: -0.461 (inactive)
--
Molecule: CC(C)C(CO)N1C(=O)[C@@H]2C3C(=O)OCCC/C=C\[C@H]3OC23C=CCN(C(C)C)C(=O)[C@@H]13 (some centres not stated)
z-score: -1.14 (inactive)
--
Molecule: CO[C@H]1O[C@H](CO)[C@@H](OC(=O)CCc2ccccc2)[C@@H]2OC(=O)[C@H](Cc3ccccc3)C/C=C/C[C@@H](Cc3ccccc3)C(=O)O[C@@H]12
z-score: -0.474 (inactive)

Query block: Name the reported z-score value associated with the molecule CCCNC(=O)[C@@H]1c2ccccc2C(=O)N(Cc2cc(C(F)(F)F)cc(C(F)(F)F)c2)[C@H]1c1ccc(CO)cc1
Result block: 0.0789 (inactive)

Query block: Consider next the molecule COCCOC(=O)N1C(=O)[C@@]2(c3cc(C#CCNC(N)=O)ccc31)[C@H](c1ccccc1OCCO)N1[C@H](c3ccccc3)[C@H](c3ccccc3)OC(=O)[C@H]1[C@@H]2C(=O)Nc1nc2ccccc2s1 in the same way.
Result block: -0.154 (inactive)

Query block: Consider next the molecule CC(C)CCC[C@@H](C)[C@H]1CC[C@@]2(C)C3=C(CC[C@]12C)[C@@]1(C)CC[C@H](OC(=O)CCl)C(C)(C)C1CC3 (some centres not stated) in the same way.
Result block: -0.281 (inactive)

Query block: Consider next the molecule COC(=O)c1c2oc(c1C(=O)OC)C(=O)N[C@@H](C(C)C)Cn1nncc1C1(CCCCC1)NC(=O)N[C@H](CO)CC2 in the same way.
Result block: 0.158 (inactive)

Query block: Consider next the molecule NC(=O)NCC#Cc1ccc2c(c1)[C@]1(C(=O)N2)[C@H](c2ccc(OCCO)cc2)N2[C@H](c3ccccc3)[C@H](c3ccccc3)OC(=O)[C@H]2[C@@H]1C(=O)Nc1nc2ccccc2s1 in the same way.
Result block: 0.219 (inactive)

Query block: Consider next the molecule COC(=O)c1c(CC[C@@H](CO)NC(=O)Nc2ccc(OC)cc2)oc(C(=O)Cc2ccccc2)c1C(=O)OC in the same way.
Result block: 0.406 (inactive)

Query block: Consider next the molecule C=C[C@H](OC)[C@@H](OC(=O)Nc1ccc(OC)cc1)c1ccc(OC)c(O)c1 in the same way.
Result block: 0.471 (inactive)

Query block: Consider next the molecule O=C1O[C@H](c2ccccc2)[C@H](c2ccccc2)N2[C@H]1[C@@H](C(=O)Nc1nc3ccccc3s1)[C@]1(C(=O)Nc3ccc(C#CCCO)cc31)[C@H]2c1ccccc1OCCO in the same way.
Result block: 0.492 (inactive)

Query block: Consider next the molecule COCCOC(=O)N1C(=O)[C@@]2(c3cc(C#CC4(O)CCCCCC4)ccc31)[C@H](c1ccc(O)cc1)N1[C@H](c3ccccc3)[C@H](c3ccccc3)OC(=O)[C@H]1[C@@H]2C(N)=O in the same way.
Result block: 0.0653 (inactive)

Query block: Consider next the molecule NCCCCCNC(=O)[C@H]1C[C@H]2C(=O)NCC(=O)N2[C@H]1c1ccc(O)cc1 in the same way.
Result block: 0.791 (inactive)

Query block: Consider next the molecule NC(=O)N1C(=O)C2C(C1=O)C1C=C(c3ccc(CO)cc3)C2C(C2CC2)N1Cc1cc2c(cc1Br)OCO2 (configuration not stated) in the same way.
Result block: -0.279 (inactive)

Query block: Consider next the molecule COc1ccc(/C=C/C(=O)c2cccc(OCC(=O)OC(C)(C)C)c2)cc1 in the same way.
Result block: 0.373 (inactive)

Query block: Consider next the molecule C=CCN1C(=O)[C@@]2(O[C@@H](CCO)[C@H]([Si](C)(C)c3ccc(OC)cc3)[C@H]2C)c2cc(N3C(=O)c4cccc5cccc3c45)ccc21 in the same way.
Result block: -0.751 (inactive)

Query block: Consider next the molecule C=CCNC(=O)[C@H]1[C@@H]2C(=O)O[C@@H](c3ccccc3)[C@@H](c3ccccc3)N2[C@@H](c2ccccc2OCCO)[C@]12C(=O)N(C(=O)OCCOC)c1ccc(C#CCCO)cc12 in the same way.
Result block: -0.0745 (inactive)

====

Each entry below lists one item and its recorded composite z-score value.
# Run description: binders of probe aFGF2 on microarray, primary screen, stem cell growth factor project, biochemical, small-molecule microarray, fluorescence 635/667 (AID 1067);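 note: measures binding of biotinylated aFGF2 protein to printed compounds on slides; z-score merges feature fluorescence and signal-to-noise across triplicate slides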
# Conditions: higher = more signal
API doc: respond with a numeric literal and nothing else, no unit.

Chemical string: C=CC[C@]1(C(=O)N2CCCCC2)COC(c2ccc(OCCCO)cc2)=N1
Measure name: composite z-score
Recorded result: -0.153

Chemical string: O=c1n(-c2ccccc2)c(=O)n2n1CC(COc1ccccc1)=C1[C@@H](CCc3ccccc3)OB(O)C[C@@H]12
Measure name: composite z-score
Recorded result: -0.031

Next molecule, please.
Query block: Name the reported composite z-score value associated with the molecule CCOC(=O)C[C@H]1[C@H](OC(=O)c2ccc(-c3ccccc3)cc2)[C@@H](NC(=O)C2CCCCC2)c2cc(OCCCO)ccc2N1C(=O)c1ccc2ccccc2n1
Result block: -0.0788
